Listed here: items and their measured growth.
Test system: RXF 393 renal
Assay: NCI-60 one-dose screen, 48 h (100 = growth as untreated, 0 = no growth, -100 = all killed)
Details: 10 µM
The panel holds about 83,000 compounds, 20% with a hit somewhere; the sample as a whole holds those more often.
Lab book: enter the figure in %, no units written.

Cc1c(C(N)=O)sc2c1c(=O)n(Cc1ccccc1)c1nnc(-c3ccc(Br)cc3)n21    15.9

Please examine the following record next.
### Prompt # input compound: O=C1Cc2cc(CCN3CCN(c4nsc5ccccc45)CC3)c(Cl)cc2N1 ; wanted: its growth
### Response 91.7

* * *

Test system: KM12 colon
Experiment: NCI-60 one-dose screen, 48 h
Details: 10 µM
The panel holds about 83,000 compounds, 20% with a hit somewhere; the sample as a whole holds those more often. Active and inactive are the calls of the source. How the source made its calls: active means growth percent below 10; inactive means the rest.
// allowed return values: 1.0 = active, 0.0 = inactive

Field: example entries. Status: answers known.
CCOC(=O)c1cc(C(=O)c2ccc(OC)c(OC)c2)n2ccncc12    0.0
O=C(O)Cc1ccc(O)c(O)c1    0.0
CNC(=O)c1cc(Oc2ccc3c(c2)sc2nc(-c4ccc(NC(=O)Nc5ccc(Cl)c(C(F)(F)F)c5)cc4)cn23)ccn1    0.0
O=C(CSc1nnc(-c2ccc(Cl)cc2)o1)Nc1ccc(C(=O)/C=C/c2ccc(Cl)cc2)cc1    0.0
COc1cc(/C=C2\CCCC3C2=Nc2ccccc2NC3c2cc(OC)c(OC)c(OC)c2)cc(OC)c1OC (stereo unspecified)    1.0

### Prompt Dear colleague, could you share the recorded outcome for CC(C)(C)OC(=O)CN1CCc2c(sc3ncnc(N/N=C/c4ccccc4Br)c23)C1 when you have a moment?
### Response 0.0

### Prompt // outcome(item) with item = CCn1c(SCCc2ccccc2)nnc1-c1nn(-c2ccc(Cl)cc2Cl)c(-c2ccc(Cl)cc2)c1C
### Response 0.0

### Prompt For CCCCCC(=O)O[C@]1(C(C)=O)CCC2C3CCC4=CC(=O)CC[C@]4(C)C3CC[C@@]21C (stereo partly specified) , what call appears in the results of this test?
### Response 0.0

### Prompt Recorded test call requested for CCC(c1ccc(OC)cc1)C(CC)c1ccc(O)c(CN2CCN(C)CC2)c1 (stereo unspecified)
### Response 0.0

### Prompt For COc1ccc(C(=O)CSc2nc(-c3cc(OC)ccc3OC)cc(-c3ccc(OC)cc3)c2C#N)cc1 , what call appears in the results of this test?
### Response 0.0

* * *

Tested on: SK-MEL-2 melanoma
Assay: NCI-60 one-dose screen, 48 h
Details: 10 µM
About 83,000 compounds went through this panel and 20% of them were active in at least one assay; those are over-represented in the sample as a whole. Activity calls are given as the source filed them. The calls were made as follows: active = growth percent below 10; inactive = the rest.
// allowed return values: active, inactive

CCC(CC)n1c(C)cc(=O)n1C(CC)CC    inactive
Nc1c(Br)cc(Br)c2c1[nH]c(=O)c1ccccc12    inactive
Cc1ccc(N=Nc2ccccc2)cc1    inactive
O=C(Nc1ccc(F)cc1)c1cc2ccccc2cc1O    inactive
Brc1ccc2c(c1)-c1ccccc1C1=NCCN12    active

### Prompt Hi, sorry to bother you, what did the test record for N#Cc1c(-c2ccc(Cl)cc2)csc1NC(=O)Nc1ccc(Cl)c(C(F)(F)F)c1 ?
### Response active

### Prompt I'd appreciate the recorded outcome for CCN(CC)CCOc1cccc2c1C(=O)c1ccccc1C2=O from this test.
### Response inactive

### Prompt So what was the verdict on CC(C)(C)OC(=O)N1CCc2c(sc3ncnc(N/N=C/c4cccc(Br)c4)c23)C1 in this test?
### Response inactive

### Prompt Tell me the assay call for CCCc1cn(CC(=O)Nc2nc3ccccc3s2)nn1 please.
### Response inactive

### Prompt I'd appreciate the recorded outcome for CCOC(=O)c1cc(C(=O)c2cc(OC)cc(OC)c2)n2ncc3ccccc3c12 from this test.
### Response inactive

### Prompt Dear all, I need the recorded test outcome for COc1ccc(/C(C#N)=C/c2ccccc2OC)cc1 , thank you.
### Response inactive

### Prompt Short answer needed: outcome of this test for COc1ccc2c(c1)CC=C1[C@@H]2CC[C@]2(C)C(=O)/C(=N/O)C[C@@H]12 ?
### Response inactive

### Prompt # lookup: test call for O=C(CCCNC(=O)c1nc(-c2ccccc2)n(-c2ccccc2)n1)NO
### Response inactive

### Prompt How did this test come out for CCc1ccc(C2=NN(c3ccc(S(C)(=O)=O)cc3)C(=O)CC2)cc1 ?
### Response inactive

* * *

System: RPMI-8226 leukemia
Test: NCI-60 one-dose screen, 48 h (100 = growth as untreated, 0 = no growth, -100 = all killed)
Details: 10 µM
About 83,000 compounds went through this panel and 20% of them were active in at least one assay; those are over-represented in the sample as a whole.
Would you mind sorting the entries by growth according to these classes? LOW (below 20%), MID (20% to below 90%), HIGH (90% or more)

Would you please look over these solved cases?
Oc1ccc(/C=N/N=C2c3ccccc3-c3ccccc32)c(O)c1    MID
CC(=O)N[C@H](C(=O)N[C@@H](CCCNC(=N)N)C(=O)N[C@@H](CCCCN)C(=O)N[C@@H](CCCNC(=N)N)C(=O)NC(C(=O)N[C@@H](CC(C)C)C(=O)N[C@@H](CCCNC(=N)N)C(=O)N[C@@]1(C)CCC/C=C\CCC[C@@](C)(C(=O)N[C@@H](CCCNC(=N)N)C(=O)N[C@@H](CCC(=O)O)C(=O)N[C@@H](CC(C)C)C(=O)N[C@H](C(=O)N[C@@H](CCC(=O)O)C(N)=O)C(C)C)NC(=O)[C@H](CCC(N)=O)NC(=O)[C@H](CC(C)C)NC(=O)[C@H](CC(C)C)NC1=O)[C@@H](C)O)C(C)C (some centres not stated)    LOW
CC(=O)N[C@H](C(=O)N[C@@H](CCCNC(=N)N)C(=O)N[C@@H](CCCCN)C(=O)N[C@@H](CCCNC(=N)N)C(=O)N[C@]1(C)CCCCCC/C=C\CCC[C@@](C)(C(=O)N[C@@H](CCCNC(=N)N)C(=O)N[C@@H](CCC(=O)O)C(=O)N[C@@H](CC(C)C)C(=O)N[C@H](C(=O)N[C@@H](CCC(=O)O)C(N)=O)C(C)C)NC(=O)[C@H](CCC(N)=O)NC(=O)[C@H](CC(C)C)NC(=O)[C@H](CC(C)C)NC(=O)[C@H](CCCNC(=N)N)NC(=O)[C@H](CCCNC(=N)N)NC(=O)[C@H](CC(C)C)NC1=O)C(C)C    MID
CC(C)(C)c1ccc(S(=O)(=O)N[C@H]2CC[C@H]3[C@@H]4CCc5cc(O)ccc5[C@H]4CC[C@]23C)cc1    MID
CS(=O)(=O)c1nccc(-c2c(-c3ccc(OCCc4ccccc4)cc3)nc3sccn23)n1    HIGH
O=[N+]([O-])c1ccc2ncccc2c1Cl    MID
Cc1ccc(C)c(COc2cc(NC(=O)c3ccc4c(c3)OCO4)ccc2N(C)S(C)(=O)=O)c1    MID
Cc1c(Cl)cccc1NC(=O)CN1CCOCC1    HIGH
CCn1c(SCc2ccc(C)cc2)nnc1-c1nn(-c2ccc(Cl)cc2Cl)c(-c2ccc(Cl)cc2)c1C    LOW
O=S(=O)(O)c1ccc(Cl)cc1    HIGH

### Prompt Hi, small favor: classify COc1cc2c(cc1OC)C(C(CCCCCC(CCC(C)C)C1NCCc3cc(OC)c(OC)cc31)CCC(C)C)NCC2 (configuration not stated) by its growth when you get a moment.
### Response LOW

### Prompt GET /class?item= CC(C)C[C@H](NC(=O)Cn1cccc(CNC(=O)c2ccccc2)c1=O)B(O)O
### Response LOW

### Prompt Input COc1cc(-c2nn(-c3cccc(NC(=O)CCN4CCN(c5ccccc5)CC4)c3)cc2-c2ccncc2)ccc1Cl ; output its category
### Response MID

* * *

Measured growth, listed per entry for reference.
Test system: 786-0 renal
Assay: NCI-60 one-dose screen, 48 h (100 = growth as untreated, 0 = no growth, -100 = all killed)
Conditions: 10 µM
The panel holds about 83,000 compounds, 20% with a hit somewhere; the sample as a whole holds those more often.
Your answer should be a plain number; it is taken to be in %.

Examples with their reported growth follow.
COc1ccc2nc(-c3ccc(Cl)cc3)cc(-c3nnc(SC/C(=N\O)c4ccccc4)n3-c3ccccc3)c2c1    88.1
CC(C)(C)c1ccc(S(=O)(=O)N[C@H]2CC[C@H]3[C@@H]4CCc5cc(O)c([N+](=O)[O-])cc5[C@H]4CC[C@]23C)cc1    62.1
CN1CCN(CC(=O)Nc2cccc(-n3cc(-c4ccncc4)c(-c4ccc(Cl)c(O)c4)n3)c2)CC1    33.6

### Prompt Which growth reading was recorded for the molecule O=C(CCn1cnc2c(cc(-c3ccccc3)n2-c2ccccc2)c1=O)Nc1ccc(F)cc1 ?
### Response 62.7

### Prompt Look up growth for this molecule: COC(=O)C1(O)NC(=C(C#N)C#N)C(C#N)=C1C(=O)c1ccc(OC)c(OC)c1 (stereo unspecified)
### Response 101

### Prompt // lookup growth for CC(=O)C1N=NCC1c1ccccc1 (stereo unspecified)
### Response 110

### Prompt What growth value was documented for this molecule, OCC1OC(n2ccc3c(NO)ncnc32)C(O)C1O (stereo unspecified) ?
### Response -7.13

### Prompt Item under review: COC1OC(COS(=O)OC)C(O)C(O)C1OS(=O)OC (stereo unspecified) . Reported growth?
### Response 106

Sourced from PubChem BioAssay (NCI)
